The measurements presented in this section are drawn from paper PMC7915682.

Biological target: GFP-tagged ferroportin (FPN) (Homo sapiens, UniProt Q9NP59)
Sequence (Q9NP59 1-571): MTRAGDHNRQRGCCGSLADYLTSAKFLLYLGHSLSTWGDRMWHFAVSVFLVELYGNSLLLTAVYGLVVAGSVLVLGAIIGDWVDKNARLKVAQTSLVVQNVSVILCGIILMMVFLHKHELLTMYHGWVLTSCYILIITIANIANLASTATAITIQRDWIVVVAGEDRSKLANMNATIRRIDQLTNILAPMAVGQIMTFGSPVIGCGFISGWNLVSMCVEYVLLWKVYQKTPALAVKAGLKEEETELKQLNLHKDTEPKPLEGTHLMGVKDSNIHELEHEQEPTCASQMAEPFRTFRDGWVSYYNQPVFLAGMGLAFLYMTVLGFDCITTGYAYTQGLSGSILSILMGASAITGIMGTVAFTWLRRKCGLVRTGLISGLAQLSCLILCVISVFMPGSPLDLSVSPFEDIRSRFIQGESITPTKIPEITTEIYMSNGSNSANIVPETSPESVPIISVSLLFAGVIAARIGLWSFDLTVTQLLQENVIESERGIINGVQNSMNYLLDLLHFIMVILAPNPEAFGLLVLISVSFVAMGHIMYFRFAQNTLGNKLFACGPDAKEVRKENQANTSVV
Test: FPN-GFP degradation (internalisation) assay by flow cytometry in HEK293:T-REx-FPN-GFP cells
Settings: FPN degradation dose-response, HEK293:T-REx-FPN-GFP cells, 24 h treatment
Where a SMILES comes first, the peptide text is derived from it.
quantity: pEC50
pEC50 (log units): -log10 of the concentration in mol/L.

QUERY: Look up pEC50 for this compound: CC[C@H](C)[C@@H](C(=O)N[C@@H](Cc1ccccc1)C(=O)O)N(C)C(=O)[C@H](CS)NC(=O)[C@H]([C@@H](C)CC)N(C)C(=O)[C@@H]1CCCN1C(=O)[C@H](Cc1ccccc1)NC(=O)[C@H](Cc1c[nH]cn1)NC(=O)[C@H]([C@@H](C)O)N(C)C(=O)[C@@H](N)CO [Peptide 7, S[N-Me T]HFP[N-Me I]C[N-Me I]F] (HELM PEPTIDE1{S.[meT].H.F.P.[meI].C.[meI].F}$$$$V2.0; N-terminus assumed)
RESULT: 5.72

* * *

Assay: Serum stability assay (25% human male serum, 37 °C, LC-MS)
Format: in vitro ADME
Conditions: serum (25% v/v); 20 μM peptide in 25% human male serum, 37 °C; read-out: peptide half-life in serum
quantity: half-life at 20 μM

QUERY: Look up half-life at 20 μM for this compound: CC[C@H](C)[C@@H]1NC(=O)[C@H](CS)NC(=O)[C@H]([C@@H](C)CC)NC(=O)[C@@H]2CCCN2C(=O)[C@H](Cc2ccccc2)NC(=O)[C@H](Cc2c[nH]cn2)NC(=O)[C@H]([C@@H](C)O)NC(=O)[C@H](CC(=O)O)NC(=O)[C@H](Cc2ccccc2)NC1=O [Peptide 8]
RESULT: ~8 min

* * *

Biological target: GFP-tagged ferroportin (FPN) (Homo sapiens)
Construct: expressed in transfected cells
Sequence (Q9NP59 1-571): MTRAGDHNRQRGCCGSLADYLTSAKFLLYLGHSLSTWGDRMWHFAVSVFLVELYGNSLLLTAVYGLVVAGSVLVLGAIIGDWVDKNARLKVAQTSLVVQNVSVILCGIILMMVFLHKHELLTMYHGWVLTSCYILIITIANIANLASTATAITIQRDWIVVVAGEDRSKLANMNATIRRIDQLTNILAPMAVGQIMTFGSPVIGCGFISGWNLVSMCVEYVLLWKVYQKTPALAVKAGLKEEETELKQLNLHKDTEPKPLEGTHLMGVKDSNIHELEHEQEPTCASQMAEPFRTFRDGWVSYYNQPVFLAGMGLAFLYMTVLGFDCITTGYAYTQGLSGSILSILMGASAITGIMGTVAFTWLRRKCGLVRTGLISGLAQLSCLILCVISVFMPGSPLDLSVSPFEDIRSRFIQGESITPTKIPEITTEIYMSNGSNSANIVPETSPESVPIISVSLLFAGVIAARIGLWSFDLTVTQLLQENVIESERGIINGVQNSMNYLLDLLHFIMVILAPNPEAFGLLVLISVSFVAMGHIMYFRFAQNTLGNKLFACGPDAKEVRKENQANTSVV
Assay: FPN-GFP degradation (internalisation) assay by flow cytometry in HEK293:T-REx-FPN-GFP cells
Assay type: cell-based
Conditions: FPN degradation dose-response, HEK293:T-REx-FPN-GFP cells, 24 h treatment
Where no end group is shown, it is not given here.
quantity: pEC50
pEC50 (log units): -log10 of the concentration in mol/L.

QUERY: Give pEC50 (GFP-tagged ferroportin (FPN) (Homo sapiens)) of the following substance: STHFPICIF-OH [Peptide 3]
RESULT: 6.49

* * *

# pEC50 values compiled below
Molecular target: GFP-tagged ferroportin (FPN) (Homo sapiens, UniProt Q9NP59)
Assay: FPN-GFP degradation (internalisation) assay by flow cytometry in HEK293:T-REx-FPN-GFP cells
Conditions: FPN degradation dose-response, HEK293:T-REx-FPN-GFP cells, 24 h treatment
Where a SMILES comes first, the peptide text is derived from it.
pEC50 (log units): -log10 of the concentration in mol/L.

Solved cases (2 shown):
>>> readoutnumber("CC[C@H](C)[C@H]1C(=O)N[C@@H](Cc2ccccc2)C(=O)N[C@@H](CC(=O)O)C(=O)N[C@@H]([C@@H](C)O)C(=O)N[C@@H](Cc2c[nH]cn2)C(=O)N[C@@H](Cc2ccccc2)C(=O)N2CCC[C@H]2C(=O)N(C)[C@@H]([C@@H](C)CC)C(=O)N[C@@H](CS)C(=O)N1C [Peptide 12, c(DTHFP[N-Me I]C[N-Me I]F)]")
5.54
>>> readoutnumber("CC[C@H](C)[C@H](NC(=O)[C@H](CS)NC(=O)[C@@H](NC(=O)[C@@H]1CCCN1C(=O)[C@H](Cc1ccccc1)NC(=O)[C@H](Cc1c[nH]cn1)NC(=O)[C@@H](NC(=O)[C@@H](N)CC(=O)O)[C@@H](C)O)[C@@H](C)CC)C(=O)N[C@@H](Cc1ccccc1)C(=O)O [Peptide 2, reference compound]")
5.68

QUERY: Look up pEC50 for this molecule: CC[C@H](C)[C@H](NC(=O)[C@@H]1CCCN1C(=O)[C@H](Cc1ccccc1)NC(=O)[C@H](Cc1c[nH]cn1)NC(=O)[C@H]([C@@H](C)O)N(C)C(=O)[C@@H](N)CO)C(=O)N[C@@H](CS)C(=O)N(C)[C@H](C(=O)N[C@@H](Cc1ccccc1)C(=O)O)[C@@H](C)CC [Peptide 6, S[N-Me T]HFPIC[N-Me I]F] (HELM PEPTIDE1{S.[meT].H.F.P.I.C.[meI].F}$$$$V2.0; N-terminus assumed)
RESULT: 5.66

* * *

Assay: Serum stability assay (25% human male serum, 37 °C, LC-MS)
Type: in vitro ADME
Conditions: male, human, serum
quantity: half-life at 20 μM

QUERY: Look up half-life at 20 μM for this molecule: CC[C@H](C)[C@H](NC(=O)[C@H](CS)NC(=O)[C@@H](NC(=O)[C@@H]1CCCN1C(=O)[C@H](Cc1ccccc1)NC(=O)[C@H](Cc1c[nH]cn1)NC(=O)[C@@H](NC(=O)[C@@H](N)CC(=O)O)[C@@H](C)O)[C@@H](C)CC)C(=O)N[C@@H](Cc1ccccc1)C(=O)O [Peptide 2, reference compound]
RESULT: ~3 min

* * *

# EC50 values compiled below
Molecular target: GFP-tagged ferroportin (FPN) (Homo sapiens, UniProt Q9NP59)
Sequence (Q9NP59 1-571): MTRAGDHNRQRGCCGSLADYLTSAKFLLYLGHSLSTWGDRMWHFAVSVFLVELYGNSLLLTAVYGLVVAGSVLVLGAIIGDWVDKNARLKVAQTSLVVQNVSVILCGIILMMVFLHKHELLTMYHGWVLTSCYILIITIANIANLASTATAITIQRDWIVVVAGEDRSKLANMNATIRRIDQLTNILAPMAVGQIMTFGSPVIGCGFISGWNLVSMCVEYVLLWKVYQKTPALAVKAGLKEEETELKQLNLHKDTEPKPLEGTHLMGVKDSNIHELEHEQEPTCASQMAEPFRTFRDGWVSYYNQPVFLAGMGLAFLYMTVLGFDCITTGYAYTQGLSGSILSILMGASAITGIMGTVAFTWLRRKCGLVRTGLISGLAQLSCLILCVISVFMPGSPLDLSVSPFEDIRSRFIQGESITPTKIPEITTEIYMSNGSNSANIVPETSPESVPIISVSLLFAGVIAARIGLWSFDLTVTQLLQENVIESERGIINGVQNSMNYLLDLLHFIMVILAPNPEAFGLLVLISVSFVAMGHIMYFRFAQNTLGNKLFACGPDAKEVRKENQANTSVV
Experiment: FPN-GFP degradation (internalisation) assay by flow cytometry in HEK293:T-REx-FPN-GFP cells
Conditions: FPN degradation dose-response, HEK293:T-REx-FPN-GFP cells, 24 h treatment
Description: HEK293:T-REx^TM-FPN-GFP cells, described previously, were cultured in T75 flasks containing FPN-GFP media (Dulbecco’s Modified Eagle’s Medium (DMEM) containing high glucose, GlutaMAX^TM supplement, hydroxyethyl piperazineethanesulfonic acid (HEPES), 10% tetracycline screened foetal bovine serum (FBS), 1% penicillin/streptomycin, and 100 μg/mL of hygromycin) and maintained at 37 °C in a humidified atmosphere of 5% CO2. […]
Where a SMILES comes first, the peptide text is derived from it.
Reply numerically in µM, unit not repeated.

Solved cases (3 shown):
>>> readoutnumber("CC[C@H](C)[C@H](NC(=O)[C@H](CS)NC(=O)[C@H]([C@@H](C)CC)N(C)C(=O)[C@@H]1CCCN1C(=O)[C@H](Cc1ccccc1)NC(=O)[C@H](Cc1c[nH]cn1)NC(=O)[C@H]([C@@H](C)O)N(C)C(=O)[C@@H](N)CO)C(=O)N[C@@H](Cc1ccccc1)C(=O)O [Peptide 5, S[N-Me T]HFP[N-Me I]CIF] (HELM PEPTIDE1{S.[meT].H.F.P.[meI].C.I.F}$$$$V2.0; N-terminus assumed)")
40.7
>>> readoutnumber("CC[C@H](C)[C@@H]1NC(=O)[C@H](CS)NC(=O)[C@H]([C@@H](C)CC)NC(=O)[C@@H]2CCCN2C(=O)[C@H](Cc2ccccc2)NC(=O)[C@H](Cc2c[nH]cn2)NC(=O)[C@H]([C@@H](C)O)NC(=O)[C@H](CC(=O)O)NC(=O)CNC(=O)CNC(=O)CNC(=O)CNC(=O)[C@H](Cc2ccccc2)NC1=O [Peptide 10] (HELM PEPTIDE1{C.I.F.G.G.G.G.D.T.H.F.P.I}$PEPTIDE1,PEPTIDE1,1:R1-13:R2$$$V2.0)")
0.158
>>> readoutnumber("CC[C@H](C)[C@@H]1NC(=O)[C@@H]2CCCN2C(=O)[C@H](Cc2ccccc2)NC(=O)[C@H](Cc2c[nH]cn2)NC(=O)[C@H]([C@@H](C)O)N(C)C(=O)[C@H](CO)NC(=O)[C@H](Cc2ccccc2)NC(=O)[C@H]([C@@H](C)CC)N(C)C(=O)[C@H](CS)NC1=O [Peptide 13, c(S[N-Me T]HFPIC[N-Me I]F)] (HELM PEPTIDE1{S.[meT].H.F.P.I.C.[meI].F}$PEPTIDE1,PEPTIDE1,1:R1-9:R2$$$V2.0)")
0.14

Kindly consider the entry below.
QUERY: Look up EC50 for this molecule: CC[C@H](C)[C@@H]1NC(=O)[C@H](CS)NC(=O)[C@H]([C@@H](C)CC)NC(=O)[C@@H]2CCCN2C(=O)[C@H](Cc2ccccc2)NC(=O)[C@H](Cc2c[nH]cn2)NC(=O)[C@H]([C@@H](C)O)NC(=O)[C@H](CO)NC(=O)[C@H](Cc2ccccc2)NC1=O [Peptide 9] (HELM PEPTIDE1{C.I.F.S.T.H.F.P.I}$PEPTIDE1,PEPTIDE1,1:R1-9:R2$$$V2.0)
RESULT: 0.266
